Cited source: ChEMBL document CHEMBL3992514

Assay: Cmax in Sprague-Dawley albino rat at 1 mg/kg, po
Type: ADME, organism-based
Design: dose 1 mg/kg, route oral
Details: in vivo
assay_metric: Cmax
Dear colleague, please send the value followed by its unit.

May I ask what Cmax has been recorded for CO/N=[14C](/N)c1ccc(-c2ccc(-c3ccc(/[14C](N)=N\OC)cc3)o2)cc1 ?
26.1 ng/mL

* * *

Can you tell me selectivity ratio for the items I'm about to list?
Test: Selectivity index, ratio of IC50 for HEK293 cells to IC50 for drug-sensitive Plasmodium falciparum 3D7 infected in erythrocytes
Settings: human

Value lookup for selectivity ratio; key = CSCCCNC(=O)Cc1cc(-c2ccc(C(=N)N)cc2)oc1-c1ccc(C(=N)N)cc1
> 7

Which selectivity ratio reading was recorded for the molecule N=C(N)c1ccc(-c2cc(CC(=O)N3CCCCC3)c(-c3ccc(C(=N)N)cc3)o2)cc1 ?
> 9

Any idea what selectivity ratio was measured for COCc1c(-c2ccc(C(=N)N)cc2)oc(-c2ccc(C(=N)N)cc2)c1Cl ?
1310

Item CC(C)OCc1c(-c2ccc(C(=N)N)cc2)oc(-c2ccc(C(=N)N)cc2)c1COC(C)C has what recorded selectivity ratio?
> 46

Recorded selectivity ratio for N=C(N)c1ccc(-c2cc(CC(=O)N3CCN(C(c4ccccc4)c4ccccc4)CC3)c(-c3ccc(C(=N)N)cc3)o2)cc1 , please?
> 35
